Reference source: PubChem BioAssay AID1159580

Assay: chemical genetic growth profiling, strain panel (AID 1159580);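 further: tested at 20 µM; growth read once vehicle control cultures reached saturation at 30 °C; 1 = growth at the plate median or of vehicle wells; lower values mean less growth of the strain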
Conditions: S. cerevisiae deletion strains, growth OD, locus YLR113W, strain HOG1, hits give low values
Hit rate of the full screen: of about 5,500 compounds, about 2,000 (36%) were called active. Not shown: some 18% with an inconclusive outcome. This is one part of the list.
quantity kind: normalized growth
Form field (numeric): enter value without unit.

Sample answers from the record:
{"molecule": "O=c1[nH]c(=O)n(C2C[C@@H](O)[C@@H](CO)O2)cc1F (stereo partly drawn)", "normalized growth": 0.986}
{"molecule": "CC1(C)C(=O)C=C[C@@]2(C)C1=C(O)C(=O)[C@]1(C)C2CC[C@@]2(C)[C@H](c3ccoc3)C[C@H]3O[C@]321 (stereo partly drawn)", "normalized growth": 0.776}
{"molecule": "CCCCC1(COC(=O)CCC(=O)O)C(=O)N(c2ccccc2)N(c2ccccc2)C1=O", "normalized growth": 0.952}
{"molecule": "c1ccc2c(c1)cc1ccc3cccc4ccc2c1c34", "normalized growth": 0.961}
{"molecule": "Cc1c(O)c(O)cc2c1CC=C1[C@@]2(C)CC[C@@]2(C)C3C[C@](C)(C(=O)O)CC[C@]3(C)CC[C@]12C (stereo partly drawn)", "normalized growth": 0.651}

Now, please, on to the next molecule.
Enquiry: Dear colleague, I am looking for the recorded normalized growth of the following molecule: CN[C@H](CC(=O)O)C(=O)O
Return: 1.07

====

Assay: chemical genetic growth profiling, strain panel (AID 1159580);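 further: tested at 20 µM; growth read once vehicle control cultures reached saturation at 30 °C; 1 = growth at the plate median or of vehicle wells; lower values mean less growth of the strain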
Settings: S. cerevisiae deletion strains, growth OD, locus YCL069W, strain vba3, hits give low values
Among all 5,500 compounds or so, about 2,000 (36%) were called active. Inconclusive results (about 18%) are left out. The list shows a part of the results.
quantity kind: normalized growth

Sample answers from the record:
{"molecule": "C=C(CC)C(=O)c1ccc(OCC(=O)O)c(Cl)c1Cl", "normalized growth": "1 (inactive)"}
{"molecule": "Oc1c(I)cc(I)c2cccnc12", "normalized growth": "0.0885 (active)"}
{"molecule": "CC1(C)C(=O)C=C[C@@]2(C)C1=C(O)C(=O)[C@]1(C)C2CC[C@@]2(C)[C@H](c3ccoc3)C[C@H]3O[C@]321 (some centres undefined)", "normalized growth": "0.959 (inactive)"}

Enquiry: Dear colleague, I am looking for the recorded normalized growth of the following molecule: O=C(O[C@@H]1Cc2c(O)cc(O)cc2O[C@@H]1c1cc(O)c(O)c(O)c1-c1c([C@H]2Oc3cc(O)cc(O)c3C[C@H]2O)cc(O)c(O)c1O)c1cc(O)c(O)c(O)c1
Return: 1.01 (inactive)

====

Assay: chemical genetic growth profiling, strain panel (AID 1159580);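 further: tested at 20 µM; growth read once vehicle control cultures reached saturation at 30 °C; 1 = growth at the plate median or of vehicle wells; lower values mean less growth of the strain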
Conditions: S. cerevisiae deletion strains, growth OD, locus YOR069W, strain VPS5, hits give low values
The campaign covered roughly 5,500 compounds. About 2,000 (36%) were called active. Inconclusive results (about 18%) are left out. The list shows a part of the results.
quantity kind: normalized growth
Form field (numeric): enter value without unit.

Sample answers from the record:
{"compound": "CNc1ccccc1C(=O)O", "normalized growth": 1.01}
{"compound": "O=C1O[C@H](C(O)CO)C(O)=C1O (some centres not stated)", "normalized growth": 0.991}
{"compound": "O=C(O)c1ccccc1Nc1cccc(C(F)(F)F)c1", "normalized growth": 0.991}
{"compound": "COc1ccc(C(Cl)=C(c2ccc(OC)cc2)c2ccc(OC)cc2)cc1", "normalized growth": 1.02}
{"compound": "COC(=O)[C@]1(C)CC[C@]2(C)CC[C@]3(C)C4=CCc5c(cc(O)c(O)c5C)[C@]4(C)CC[C@@]3(C)C2C1 (some centres not stated)", "normalized growth": 0.984}

Enquiry: Dear colleague, I am looking for the recorded normalized growth of the following compound: Cc1c(O)c(O)cc2c1CC=C1[C@@]2(C)CC[C@@]2(C)C3C[C@](C)(C(=O)O)CC[C@]3(C)CC[C@]12C (some centres not stated)
Return: 0.945

Enquiry: Dear colleague, I am looking for the recorded normalized growth of the following compound: O=C1C=CC2=C3c4cc(O)c(O)cc4C[C@@]3(O)COC2=C1
Return: 0.993

Enquiry: Dear colleague, I am looking for the recorded normalized growth of the following compound: O=C(O)c1cccnc1Nc1cccc(C(F)(F)F)c1
Return: 0.956

Enquiry: Dear colleague, I am looking for the recorded normalized growth of the following compound: CC(=O)c1c(O)c(C)c(O)c2c1OC1=CC(=O)C(C(C)=O)C(=O)C12C (configuration not stated)
Return: 1.01

Enquiry: Dear colleague, I am looking for the recorded normalized growth of the following compound: CN/C(=C\[N+](=O)[O-])NCCSCc1ccc(CN(C)C)o1
Return: 1.02

Enquiry: Dear colleague, I am looking for the recorded normalized growth of the following compound: O=C(O)CCC(=O)C(=O)O
Return: 1
